tested on: UniProt P03366
experiment description: HIV Reverse Transcriptase Assay: Inhibitor IC50 Determination
Type: biochemical
particulars: purified recombinant enzyme, poly(rA)/oligo(dT)16 template-primer; read-out: IC50(μM) RTI
readout name: IC50 (µM)
Answers are plain numbers, in µM.

Completed entries (count: 4):
compound	unit text	measured number
CCCc1c(CO)nn(CC)c1Oc1cc(Cl)cc(Cl)c1 [Cpd 22]	µM	1.56
CCc1c(CCN)nn(C(C)C)c1Oc1cc(Cl)cc(Cl)c1 [Cpd 48]	µM	1.07
CCc1c(CNC=O)nn(C(C)C)c1Oc1cc(Cl)cc(Cl)c1 [Cpd 40]	µM	0.648
CCc1c(CO)nn(CC)c1Oc1cc(Cl)cc(Cl)c1 [Cpd 17]	µM	1.66

Please turn your attention to the following entry.
[ask] Form entry - test system: UniProt P03366; read-out: IC50; compound: CCc1c(CCO)nn(C(C)C)c1Oc1cc(Cl)cc(Cl)c1 [Cpd 36]
[reply] 0.0383

###

Please go through the items and note down their melting point.

molecule	readout name	result
CCn1nc(CCO)c(Cc2ccncc2)c1Oc1cc(Cl)cc(Cl)c1	melting point	103 to 105.8 °C
CCc1c(CC(=O)Nc2ccccc2)nn(CC)c1Oc1cc(Cl)cc(Cl)c1	melting point	112.2 to 115.9 °C
CCc1c(CC(=O)Nc2ccccc2)nn(C(C)C)c1Oc1cc(Cl)cc(Cl)c1	melting point	118.9 to 120.9 °C

Batch: melting point for all items listed.
1. CCc1c(Cc2ncc[nH]2)nn(CC)c1Oc1cc(Cl)cc(Cl)c1
2. CCc1c(Cc2cnc[nH]2)nn(CC)c1Oc1cc(Cl)cc(Cl)c1

[reply]
1. 145 to 148 °C
2. 142 to 145.2 °C
